Cited source: the nanobody polyreactivity screen of Harvey et al. (2022)

Test: yeast display, Sf9 membrane polyspecificity reagent, FACS + sequencing; frameworks hold sequencing errors
Attribute Measured: polyreactivity (PSR sort gate)

Residue Sequence: QVQLVESGGGLVQAGGRLRLSSAASGRIFHSYAMGWYRQAPGKDRELVAGITSRGGTYYADSVKGRFTISRDNAKNTVYLQMNSLKPEDTAVYYCNADQALYSSGNKYDYWGQGTQVTVSS
Result: low polyreactivity
--
Residue Sequence: QVQLEESGGGLVQAGGSLRLSCPPSGSTYYVYAMGWYRPAPGKERELVAAIDGGDTYYADSVKGGFTISRDNAMNTVFLQMNSLKPEDTAVYYCAAESLPEISVGLGFWGQGTQVTVSS
Result: low polyreactivity
--
Residue Sequence: QVQLVESGGGLVQARGSLRLSCAASGRIFPGYAMGWYRQAPGKERELVAGISNDASTNYADSVKGRFTISRDNAKNTVYLQMNSLKPEDTAVYYCAAEISSLSFPRYDYWGQGTQVTVSS
Result: low polyreactivity
--
Residue Sequence: QVKLVESGGGLVQAGGRLSLSCAASGLTLSGNAMGWYRQAPGKDRELVAAITGRGGSTTYADSVKGRFTISRDNAKNTVYLQMNSVKPEDTAVYYCAATRYSWNNRVSRRHRYEYWGQGTQVTVSS
Result: high polyreactivity
--
Residue Sequence: QVQLVESGGGLVQAGGSLRLSCAASGNTFSQYAMGWSRQAPGKERELVATISKSSGSTSYADSVKGRFTISRDNAKNTVYLQMNSLKPEDTAVYYCNADSSDVYHHLGVLFFSTWYDYWGQGTQVTVSS
Result: low polyreactivity
--
Residue Sequence: QVQLVESGGGLVQAGGSLRLSCAASGRTLGIYAMGWYRQAPGTERELVAAITLSGSDTYYADSVKGRFTISRDNAKNTVDLQMNSLKPEDTAVYYCAAKTYGGYGKYGYWGQGTQVTVSS
Result: low polyreactivity
--
Residue Sequence: QVQLVESGGGLVQAGGSLRLSCAASGRTFVLYAMGWYRQAPGKERELVAAITSGGSTNYADSVKGRFTISRDNAKNTVYLQMNSLKPEDTAVYDCAAVPVRYRYSYGYYYWGQGTQVTVSS
Result: high polyreactivity
--
Residue Sequence: QVQLVESGGGLVQAGGSLRLSCAASGRTFYYYAMVWYRQAPGKERELVAAINSGGSTNYADSVKGRFTISRDNAKNTVYLQMNSLKPEDTAVYYCAKRAYTTVYGPVNYGFNYWGQGTQVTVSS
Result: low polyreactivity
--
Residue Sequence: QVQLVESGGGLVQAGGSLRLSCAASGRIFVGYAMGWYRQAPGKERELVAAINRSGSSTYYADSVKGRFTISRDNAKNTVYLQMNSLKPEDTAVYYCNAARRQGNRYTYDYWGQGTQVTVSS
Result: high polyreactivity
--
Residue Sequence: QVQLEESGGGLVQAGGSLRLSCAASGPIFPGYVMGWYRQAPGKERELVAAISVRGGSTYYADSVKGRFTISRDNAKNTVYLQMNSLKPEDTAVYYCAADSYYYQGYRRYNYDYWGQGTQVTVSS
Result: high polyreactivity
--
Residue Sequence: QVQLVESGGGLVQAGGSLRISWAASGSTFGYYAMGWYRQAPGKDREWVAAISLGGGSTYYADSVKGRFTISRDNAKNTVYLQMNSLKPDDTAVYYCAARPYVRVKWKFNYWGQGTQVTVSS
Result: low polyreactivity
--
Residue Sequence: QVQLVESGGGLVQAGGSLRLSCAASGIYYNAMGWYRQAPGKERELVAAITTGDRTNYADSVKGRFTISRDNAKNTVYLQMYSLIPEDTAVYYCKAVVERLSSTARDFAYDYWGQGTQVNVSS
Result: low polyreactivity
--
Residue Sequence: QVQLQESGGGLVQAGGSLRLSCAASGTIFTARFMGWYRQAPGKERELVATITDGGNTNHADSVKGRFTISRDNAKNTVYLHMNSLKPEDAAVYYCAAGEVDNDTLLYWGQGSQVTVSS
Result: low polyreactivity
--
Residue Sequence: QVQLVESGGGLVQAGGSLRLSCAASGSTFGINAMGWYRQAPGKERELVARISTGVRTYYADSVKGRFTISRDNAKNTVYLQMNSLKPEDTAVYYCAAVYYRGVDRAILSYRYYYWGQGTQVTVSS
Result: high polyreactivity
--
Residue Sequence: QVQLVESGGGLVQAGGSLRLSWAASGFTFKYNAMGLYRQAHGKERELVAAISGSGGRTYYSDSVKGRFTISRDNAKNTVYLQMNSLKPEYTAVYYCAAVYLVTLGARYDYWGQGTQVTVSS
Result: high polyreactivity
--
Residue Sequence: QVQLVESGGGLVQAGGSLRLSCAASGSTFVYNARGWYRQAPGKERELVAAISRRGGSTYYADSVKGRFTISRDNAKNTVYLQMNSLKPEDTAVYYCAADQYRTNSYRYDYWGQGTQVTVSS
Result: low polyreactivity
--
Residue Sequence: QVQLVESGGGLVQAGGSLRLSCAASGSTFGRNAMGWYRQAPGKERELVAAISWRSTPTYYADSVKGRFTISRDNAKNTVYLQMNSLKPEDTAVYYCAVYYYYPSTNGYHYDYWGHGTQVTVSS
Result: high polyreactivity
--
Residue Sequence: QVQLVESGGGLVQAGGSLRLSCAASGIVRQNPMGWYRQAPGKERELVACISQSGGSTYYADSVKGRFTISRDNAKNTVYLQMNSLKPEDTAVYYCAVVSIWGYDYWGEGTQVTVSS
Result: low polyreactivity
--
Residue Sequence: QVQLVESGGGLDQSGGSLRISCAASGSTFYRNAMGWYRQAPGKEREFVAAITTDDSTYYADSVKGRFTISRDNAKNTVYLQMNSLKPEDTAVYYCAAGLEGKATWAAVGGYDYWGQGTQVTVSS
Result: low polyreactivity
--
Residue Sequence: QVHLVESGGGLVQAGGSLRLSCAASGRTFYDYTMGLDRQAPGKERELVAAISQRGGSTYYADSVKGRFTISRDNAKNTVYLQMNSLKPEDTAVYYCAARTSYSGNKYYYWGQGTQVTVSS
Result: high polyreactivity
--
Residue Sequence: QVQLVESGGGLVQAGGSLRLTCAASGRIFAPKAMGWYRQAPGKERELVAGISSGGSTNYADSVKGRFTISRDNAKNTVYLQMNSLTPEDSAVYYCATGSYSYHRGYVTYARYGYWGQGTLVTVSS
Result: low polyreactivity

----------
Test: yeast display, Sf9 membrane polyspecificity reagent, FACS + sequencing; frameworks hold sequencing errors
Attribute Measured: polyreactivity (PSR sort gate)

Residue Sequence: QVQLVESGGGLVQAGGSLRLSCAASGGIFYVNAMGWYRQAPGKERELVAAITSDGVSTYYADSVKGRFTISRDNAKNTVYLQMNSLKPEDTAVYYCAADNGGAGYYYGYVWYDYWGQGTQVTVSS
Result: low polyreactivity
//
Residue Sequence: QVQLVESGGGLVQAGGSLRLSCAASGIIFELYAMGWYRQAPGKERELVAAISNGDSTNYADSVKGRFTISRDNAKNTVYLQMNSLKPEDTAVYYCAARYSTYVRYDYWGQGTQVTVSS
Result: low polyreactivity

----------
Assay: yeast display, Sf9 membrane polyspecificity reagent, FACS + sequencing; frameworks hold sequencing errors
Attribute Measured: polyreactivity (PSR sort gate)

Residue Sequence: QVQLVESGGGLVQAGGSLRLSCAASGRTFRYNALGWYRQAPGKETELVAAISGRGSSTYYADSVKGRFTISRDNAKNTVYLQMNSLKPEDTAVYYCAALPASVRRPGWHDYWGQGTEVTVSS
Result: high polyreactivity

Residue Sequence: QVQLVESGGGLVQAGGSLRLSCAASGSTFWDYTMGWYRQAPGKERELVAAINYSDGSTYYADSVKGRFTISRDNAKNTVYLQMNSLKPEDTAVYYCAAGSDPTGRRYDYWGQGTQVTVSS
Result: low polyreactivity

Residue Sequence: QVQLEESGGGLVQAGGSLRLSCAASGFNFAAYTMGWNRQAPGKEREWVAGISKRGGTTYYADSVKGRFTISRDNAKNTVYLQMNSLKPEDTAVYYCAASRYVTTSRYQYNHWGQGTQVTVSS
Result: high polyreactivity

Residue Sequence: QVQLVESGGGLVQAGGSLRLSCAASGITFTPNAMGWYRPAPGKEREFVAAITYSGGSTYYADSVKGRFTISRDNAKNTVYLQMNSLKPEDTAVYYCAAVYYLLYYEAYYYWGQGTQVTVSS
Result: low polyreactivity

Residue Sequence: QVQLVESWGCLVQAGGSLRLSCAASGFTFESNAMGWYRQAPGKERELVAAITSSGGRTYYADSVKGRFTISRVNAKNTVYLQMNSLNPEDSAVYYCAATGKAPRESGGVYSMDWGQGTQVTVSS
Result: low polyreactivity

----------
Assay: yeast display, Sf9 membrane polyspecificity reagent, FACS + sequencing; frameworks hold sequencing errors
Attribute Measured: polyreactivity (PSR sort gate)

Residue Sequence: QVQLVESGGGLVQAGGSLRLSCAASGFIYRVYGMGWYRQAPVKERELLAAISGRGGSTYYADSVKGRFTISRDNANNTVYLQMHSLKPEDTAVYYCYTLDIRTYSKYDYWGQGTQVTVSS
Attribute Measured: polyreactivity (PSR sort gate)
Result: high polyreactivity
--
Residue Sequence: QVQLVESGGGLVQAGGSLRLSCAASGLIFYLYTMGWYRQAPGQERELVAAISRSGGSTYYADSVKGRFTISRDNAKNTVYVQMNSLKPEDPAVYYCAALRSRSTYNDYNYWGQGTQVTVSS
Attribute Measured: polyreactivity (PSR sort gate)
Result: high polyreactivity
--
Residue Sequence: QVQLVESGGGLVQAGGSLRLSCAASGRTFTFNAMGWYRQAPGKERELVARIDWRGITYADSVKGRFTISRDNAKNTVYLQMNSLKPEDTAVYYCAAVWLHIRGFFFQYDYWGQGTQVTVSS
Attribute Measured: polyreactivity (PSR sort gate)
Result: low polyreactivity
--
Residue Sequence: QVQLVESGGGLVQAGGSLRLSCAASGSTFVRYAMGWYRPAPGKERELVAVISSSGGTTYYADSVKGRFTISRDNAKNTVYLQMNSLKPEDTAVYSCARRVRWWGPRRSDFDYWGQGTQVTVSS
Attribute Measured: polyreactivity (PSR sort gate)
Result: high polyreactivity
--
Residue Sequence: QVQLVESGGGLVQAGCSLRLSSAASGFTFAYYVMGWYRQAPGKERELVAAISISGGRTYYADSVKGRFTISRDNEKNSVYLQMNRLKPEETAVYYCAADRRTDGHDYWGQGSQVTVSS
Attribute Measured: polyreactivity (PSR sort gate)
Result: high polyreactivity
--
Residue Sequence: QVQLVESGGGLVQAGGSLRLSCAASGSTFSYYAMGWYRQAPGKERELVAAISWSGGSKYYADSVKGRFTISRDNAKNTVYLQMNSLKPEDTAVYYCAVYYSYWFDYWGQGTQVTVSS
Attribute Measured: polyreactivity (PSR sort gate)
Result: high polyreactivity
--
Residue Sequence: QVQLVESGGGLVQAGGSLRLSCAASGFTITRYARGWYRQAPGKERELVAVITYSGDTYYADSVKGRFTISRDNAKNTVYLQMNSLKPEDTAVYYCAVERAYYSDTGRYGYDYWGQGTQVTVSS
Attribute Measured: polyreactivity (PSR sort gate)
Result: high polyreactivity
--
Residue Sequence: QVQLVETGGGVVQAGGSLRISCAASGRIFLYYTMGWYRQAPGIERELVATIRSGDSTIYADAVKGRFTISRDNAKNTVYLQMNTLTPEDTAVYYCAADWDIFQQGANGAPYDYWGQGTQVTVSS
Attribute Measured: polyreactivity (PSR sort gate)
Result: low polyreactivity
--
Residue Sequence: QLQLVESGGGLVQAGGSLRLSCAASGSTFTDYAMGWYRQAPGKERELVAAISWSGGSTYYADSVKGRFTISRDNAKNTVYLQMNSLKPEDTAVYYCAFRYHGYDYWGQGTQVTVSS
Attribute Measured: polyreactivity (PSR sort gate)
Result: high polyreactivity
--
Residue Sequence: QVHLVESVGGLVQAGGSLRLSCAASGYIFGGYAMAWYRQAPGKERELVAAISRSGGSTYYADSVKGRFTISRDNAKNTVYLQINSLKPVDTAVYYCAVRGYTLPYGYWGQGTQVTVSS
Attribute Measured: polyreactivity (PSR sort gate)
Result: high polyreactivity
--
Residue Sequence: QVQLVESGGGLVQAGGSLRLSCAASGRTFPPYAMGWYRQAPGKERELVAAISRRAGTTYYADSVKGRFTISRDNAKNTVYLQMNSLKPEDTAVYYCAALTESSSYGYWGQGTQVTVSS
Attribute Measured: polyreactivity (PSR sort gate)
Result: low polyreactivity
